Reported Response values for the following binders.
# TESTED_ON: T1, biotinylated human BCMA-Fc, Avitag recombinant protein (ACRO Biosystems, #BC7-H82F0) (human, UniProt Q02223 1-54, biotinylated)
# T1 construct: extracellular domain; Bought protein; also called human BCMA protein; recombinant human BCMA-ECD-Fc; not shown: Fc of the bought fusion protein; Avitag
# T1 sequence (looked up): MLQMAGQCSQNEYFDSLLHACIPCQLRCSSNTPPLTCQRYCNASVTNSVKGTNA
# EXPERIMENTAL_DETAILS: BLI (Octet Red96e), biotinylated BCMA-Fc on SA sensor, VH supernatant, 100 nM, single concentration

BINDER | Response
PR004566, PR001046 VH-derived single-domain variant 1046-R2-4G10 (VHH, Tested as VH single domain with Flag and His tags; not shown: Flag and His tags) VHH: EVQLVETGGGLIQPGGSLRLSCAASGFTVSDSYMTWVRQAPGKGLEWVSVIFSGGRTYYSDSVKGRFTISRDNAKNTLYLQMNSLRAEDTALYYCARRNYDDTRGTDVFDIWGQGTMVTVSS | 0.424
PR004571, PR001046 VH-derived single-domain variant 1046-R2-6F1 (VHH, Tested as VH single domain with Flag and His tags; not shown: Flag and His tags) VHH: EVQLVETGGGLIQPGGSLRLSCAASGFTVSDSYMTWVRQAPGKGLEWVSVIFSGGKTYYSDSVKGRFTISRDNAKNTLYLQMNSLRAEDTALYYCARRNYDQTIGTDVFDIWGQGTMVTVSS | 0.704
PR004573, PR001046 VH-derived single-domain variant 1046-R2-8B1 (VHH, Tested as VH single domain with Flag and His tags; not shown: Flag and His tags) VHH: EVQLVETGGGLIQPGGSLRLSCAASGFTVSDSYMTWVRQAPGKGLEWVSVIFSGGKTYYADSVKGRFTISRDNAKNTLYLQMNSLRAEDTALYYCARRNYDDTRGTDVFDIWGQGTMVTVSS | 0.268
PR004565, PR001046 VH-derived single-domain variant 1046-R2-2G4 (VHH, Tested as VH single domain with Flag and His tags; not shown: Flag and His tags) VHH: EVQLVETGGGLIQPGGSLRLSCAASGFTVSDAYMTWVRQAPGKGLEWVSVIFSGGNTYVSDSVKGRFTISRDNAKNTLYLQMNSLRAEDTALYYCARRNYDQTIGTDVFDIWGQGTMVTVSS | 0.557
PR004570, PR001046 VH-derived single-domain variant 1046-R2-6D6 (VHH, Tested as VH single domain with Flag and His tags; not shown: Flag and His tags) VHH: EVQLVETGGGLIQPGGSLRLSCAASGFTVSDAYMTWVRQAPGKGLEWVSVIFSGGRTYYADSVKGRFTISRDNAKNTLYLQMNSLRAEDTALYYCARRNYDQTRGTDVFDIWGQGTMVTVSS | 0.437
PR004572, PR001046 VH-derived single-domain variant 1046-R2-7E7 (VHH, Tested as VH single domain with Flag and His tags; also called PR001046-R2-7E7; not shown: Flag and His tags) VHH: EVQLVETGGGLIQPGGSLRLSCAASGFTVSDSYMTWVRQAPGKGLEWVSVIFSGGKTYVADSVKGRFTISRDNAKNTLYLQMNSLRAEDTALYYCARRNYDDTRGTDVFDIWGQGTMVTVSS | 0.29
PR004567, PR001046 VH-derived single-domain variant 1046-R2-5E1 (VHH, Tested as VH single domain with Flag and His tags; not shown: Flag and His tags) VHH: EVQLVETGGGLIQPGGSLRLSCAASGFTVSDSYMTWVRQAPGKGLEWVSVIFSGGKTYVADSVKGRFTISRDNAKNTLYLQMNSLRAEDTALYYCARRNYDQTRGTDVFDIWGQGTMVTVSS | 0.578
PR004560, PR001046 VH-derived single-domain variant 1046-R2-10F1 (VHH, Tested as VH single domain with Flag and His tags; not shown: Flag and His tags) VHH: EVQLVETGGGLIQPGGSLRLSCAASGFTVSDAYMTWVRQAPGKGLEWVSVIFSGGNTYVSDSVKGRFTISRDNAKNTLYLQMNSLRAEDTALYYCARRNYDQTRGTDVFDIWGQGTMVTVSS | 0.573

From: patent US20230322953A1
